system: oxy-Hb in intact human erythrocytes (Homo sapiens, UniProt P68871+P69905)
Construct: Physiologically, oxy-Hb is found in erythrocytes; endogenous in cells; host or cells: intact human erythrocytes from fresh blood of healthy donors
Sequence (P69905 2-142 limits assumed): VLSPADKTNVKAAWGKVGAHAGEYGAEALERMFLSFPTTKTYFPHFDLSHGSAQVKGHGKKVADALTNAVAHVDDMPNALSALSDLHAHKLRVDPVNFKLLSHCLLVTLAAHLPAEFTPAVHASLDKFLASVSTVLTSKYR
Sequence (P68871 2-147 limits assumed): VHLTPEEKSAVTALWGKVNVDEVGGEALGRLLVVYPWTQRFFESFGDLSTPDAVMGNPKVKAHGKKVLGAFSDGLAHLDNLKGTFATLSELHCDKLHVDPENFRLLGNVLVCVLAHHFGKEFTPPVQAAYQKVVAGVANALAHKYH
experiment.description: Oxidation of oxy-Hb in intact human erythrocytes
Type: cell-based
protocol.conditions: 10 μM, 3 h/37 °C, control 0.5%
reported.endpoint: oxy-Hb oxidation to met-Hb in erythrocytes

Examples with answers:
CCN(C)C([S-])=NN=C(c1ccccn1)c1ccccn1.CCN(C)C([S-])=NN=C(c1ccccn1)c1ccccn1.[Fe+3] [[Fe(Dp4e4mT)2]^+]; 4.8 % of the total
CN(C)C([S-])=NN=C(c1ccccn1)c1ccccn1.CN(C)C([S-])=NN=C(c1ccccn1)c1ccccn1.[Fe+3] [[Fe(Dp44mT)2]^+, reference compound]; 34.4 % of the total

Task: Return value of oxy-Hb oxidation to met-Hb in erythrocytes for input CN(C)C(=S)NN=C(c1ccccn1)c1ccccn1 [Dp44mT, reference compound] , no commentary.
Result: 2.3 % of the total

Task: Return value of oxy-Hb oxidation to met-Hb in erythrocytes for input `CCN(C)C(=S)NN=C(c1ccccn1)c1ccccn1` , no commentary.
Result: 1.9 % of the total

Task: Return value of oxy-Hb oxidation to met-Hb in erythrocytes for input CCN(C)C([S-])=NN=C(c1ccccn1)c1ccccn1.CCN(C)C([S-])=NN=C(c1ccccn1)c1ccccn1.[Ga+3] [[Ga(Dp4e4mT)2]^+] , no commentary.
Result: 1.3 % of the total

----------
Tested on: AsPC-1 cells
experiment.description: MTT cellular proliferation assay, AsPC-1 pancreatic adenocarcinoma cells
Format: cell-based, human
protocol.conditions: AsPC-1, 48 h, 37 °C, MTT, mean ± SD (3 experiments)
Reported IC50 by item:
Kindly answer with a numeric value in nM, unit omitted.

Examples with answers:
CCN(C)C([S-])=NN=C(c1ccccn1)c1ccccn1.CCN(C)C([S-])=NN=C(c1ccccn1)c1ccccn1.[Cu+2] [[Cu(Dp4e4mT)2]]; 44
CCN(C)C([S-])=NN=C(c1ccccn1)c1ccccn1.CCN(C)C([S-])=NN=C(c1ccccn1)c1ccccn1.[Fe+3] [[Fe(Dp4e4mT)2]^+]; 1580
CCN(C)C([S-])=NN=C(c1ccccn1)c1ccccn1.[Cl-].[Pd+2] [[Pd(Dp4e4mT)Cl]]; 1340

The record that follows has no IC50 shown yet.
Task: Return value of IC50 for input CCN(C)C([S-])=NN=C(c1ccccn1)c1ccccn1.CCN(C)C([S-])=NN=C(c1ccccn1)c1ccccn1.[Ga+3] [[Ga(Dp4e4mT)2]^+] , no commentary.
Result: 47

----------
system: oxy-Mb (Homo sapiens)
Sequence (P02144 whole entry): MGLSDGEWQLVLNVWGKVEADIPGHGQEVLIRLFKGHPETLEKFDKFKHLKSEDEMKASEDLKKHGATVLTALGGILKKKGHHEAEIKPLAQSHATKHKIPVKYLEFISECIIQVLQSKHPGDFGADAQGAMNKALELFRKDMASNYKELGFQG
experiment.description: Oxidation of purified oxy-Mb to met-Mb (UV-vis)
Type: biochemical
protocol.conditions: 10 μM agent, oxy-Mb 40 μM, 3 h incubation, 20 °C
reported.endpoint: oxy-Mb oxidation (met-Mb generation)

Examples with answers:
CCN(C)C([S-])=NN=C(c1ccccn1)c1ccccn1.CCN(C)C([S-])=NN=C(c1ccccn1)c1ccccn1.[Fe+3] [[Fe(Dp4e4mT)2]^+]; 213 % of the control
CN(C)C([S-])=NN=C(c1ccccn1)c1ccccn1.CN(C)C([S-])=NN=C(c1ccccn1)c1ccccn1.[Fe+3] [[Fe(Dp44mT)2]^+, reference compound]; 222 % of the control
CN(C([S-])=NN=C(c1ccccn1)c1ccccn1)C1CCCCC1.CN(C([S-])=NN=C(c1ccccn1)c1ccccn1)C1CCCCC1.[Fe+3] [[Fe(DpC)2]^+, reference compound]; 161 % of the control
CN(C)C(=S)NN=C(c1ccccn1)c1ccccn1 [Dp44mT, reference compound]; 129 % of the control

The record that follows has no oxy-Mb oxidation (met-Mb generation) shown yet.
Task: Return value of oxy-Mb oxidation (met-Mb generation) for input `CCN(C)C(=S)NN=C(c1ccccn1)c1ccccn1` , no commentary.
Result: 140 % of the control
